ASSAY_OVERVIEW: Primary qHTS for inhibitors of nuclear receptor binding SET domain protein 2 (NSD2) in an isogenic RCH-ACV NSD2 p.E1099K mutant (9B) (AID 1645876); also: nearly all actives have a fitted effect of over 70% in size
TEST_SETTINGS: RCH-ACV (leukaemia line) NSD2 E1099K (9B) viability, CellTiter-Glo, 72 h; series mostly up to 44.9 µM
Records with an inconclusive call do not appear. The source made the active and inactive calls. Calls follow the shape of the dose curve; as a rule, active = well fitted inhibition curve with a large enough effect; inconclusive = small, poorly fitted or top-dose-only effect; inactive = flat fitted curve, though single readings scatter.
The categories you may choose from are yes for active, no for inactive

Examples from the recorded data:
O=C(/C=C/N1C[C@H]2C[C@@H]1CN2c1ccccn1)c1ccccc1O    no
O=C(/C=C/c1cccnc1)NCCCCC1CCN(C(=O)c2ccccc2)CC1    yes
CC[C@H]1OC(=O)[C@H](C)C(=O)[C@H](C)[C@@H](O[C@H]2O[C@H](C)C[C@H](N(C)C)[C@H]2O)[C@](C)(OC)C[C@@H](C)C(=O)[C@H](C)[C@H]2N(CCCCn3cnc(-c4cccnc4)c3)C(=O)O[C@]12C    no
C/C(=N\NC(=O)c1cccc(S(=O)(=O)N2CCOCC2)c1)c1cc(Cl)ccc1O    yes
CC1(C)S[C@H]2[C@H](NC(=O)[C@@H](N)c3ccc(O)cc3)C(=O)N2[C@H]1C(=O)O    no

What was the test verdict on O=C(Nc1nccs1)C(c1cc(F)ccc1O)N1Cc2ccccc2C1=O (configuration not stated) ?
no

Entry to check: `O=C(NO)c1cnc(N2C[C@H]3C[C@@H]2CN3c2cc(C(F)(F)F)ccn2)nc1`
yes

====

TESTED_TARGET: Dual specificity protein kinase CLK4 (Homo sapiens) (UniProt Q9HAZ1)
Sequence (Q9HAZ1 whole entry, looked up): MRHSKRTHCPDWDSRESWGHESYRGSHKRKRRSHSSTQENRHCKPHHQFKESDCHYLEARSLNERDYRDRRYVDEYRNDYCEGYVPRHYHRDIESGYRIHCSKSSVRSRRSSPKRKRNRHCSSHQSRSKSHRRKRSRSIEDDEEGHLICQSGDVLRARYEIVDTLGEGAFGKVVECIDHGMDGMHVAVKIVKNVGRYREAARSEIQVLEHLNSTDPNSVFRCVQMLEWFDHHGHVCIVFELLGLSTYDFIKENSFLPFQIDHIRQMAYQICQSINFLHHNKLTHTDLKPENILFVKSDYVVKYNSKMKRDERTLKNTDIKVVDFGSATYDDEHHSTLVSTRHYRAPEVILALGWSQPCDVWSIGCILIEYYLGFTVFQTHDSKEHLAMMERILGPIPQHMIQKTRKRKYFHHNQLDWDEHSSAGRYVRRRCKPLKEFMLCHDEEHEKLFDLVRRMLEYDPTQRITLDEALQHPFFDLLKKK
ASSAY_OVERVIEW: qHTS Assay for Inhibitors of CDC-like Kinase 4 (ADP-Glo Assay) (AID 1771); also: nearly all actives have a fitted effect of over 70% in size; also: potency is read from the fitted curve at half-maximal effect
TEST_SETTINGS: recombinant CLK4, ADP-Glo luminescence; series mostly up to 80 µM
Results filed as inconclusive are left out. Activity calls are given as the source filed them. Calls come from the whole dose curve; as a rule, active = well fitted inhibition curve with a large enough effect; inconclusive = small, poorly fitted or top-dose-only effect; inactive = flat fitted curve, though single readings scatter.
PROPERTY: Potency

COc1ccc(-c2nc3cnc(N4CCNCC4)nc3n(Cc3cccs3)c2=O)cc1    inactive
COc1cccc(Nc2ncc3nc(-c4ccccc4)c(=O)n(Cc4cccs4)c3n2)c1    inactive
CN(C)c1ccc(-c2cc(Nc3ccc(F)cc3)ncn2)cc1    14.1 µM (active)
Cc1nc2cnc(Nc3ccccc3)nc2n(Cc2ccc(F)cc2)c1=O    inactive
COc1ccc(-n2c(=O)c(-c3cccs3)nc3cnc(N4CCOCC4)nc32)cc1    inactive

Which Potency is reported with Dual specificity protein kinase CLK4 (Homo sapiens) (UniProt Q9HAZ1) for this entry: `COCCn1c(=O)c(C)nc2cnc(N3CCN(C)CC3)nc21` ?
inactive

Entry to check: `COc1cccc(-c2ccc3ncnc(N4CCN(C)CC4)c3c2)c1`
3.98 µM (active)

Entry to check: `COCCn1c(=O)c(-c2ccccc2)nc2cnc(Oc3ccc(OC)cc3)nc21`
inactive

Entry to check: `c1cncc(CNc2ccnc(-c3ccc4c(c3)OCO4)n2)c1`
0.1 µM (active)

====

activity change, negative = inhibition values for the compounds below.
ASSAY_OVERVIEW: AP1 Signaling Pathway (AID 357);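 also: ME-180 reporter cells stimulated with EGF at its EC50 level; % is scaled to controls: 0 for no effect and ±100 for the full control effect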
TEST_SETTINGS: ME-180 (cervical carcinoma) AP-1-bla reporter, EGF-induced, beta-lactamase ratio, 5 h; at 7.69 µM (top of the series) unless noted
Inconclusive results are not listed.
Report the figure in % without appending any unit label.

Illustrative cases are given below, each with its answer.
COC(=O)N1CCC2(CCCN(C(=O)Nc3cccc(F)c3)C2)CC1    -3.15
COc1ncc2nc(-c3cc(F)cc(F)c3)c(=O)n(C)c2n1    -19.2
COc1ccc(-n2c(=O)c(-c3cn(C)c4ccccc34)nc3cnc(OC)nc32)cc1    -6.77
O=C(Nc1cccc(F)c1)N1CC[C@@]2(CCCNC2)C1    2.44

Alright, here's another compound for you.
Look up activity change, negative = inhibition: `COc1cccc(Cn2c(=O)c(-c3cccs3)nc3cnc(N(C)C)nc32)c1`
-9.34

====

ASSAY_OVERVIEW: OV-SAHO Cancer Cell Toxicity qHTS against the NCATS CANVASS Library (AID 1347348); also: nearly all actives have a fitted effect of over 55% in size; also: potency is read from the fitted curve at half-maximal effect
TEST_SETTINGS: OV-SAHO viability, CellTiter-Glo luminescence, 72 h; series mostly up to 38.3 µM
Inconclusive results are not listed. The source made the active and inactive calls. Calls follow the shape of the dose curve; as a rule, active = well fitted cell-killing curve with a large enough effect; inconclusive = small, poorly fitted or top-dose-only effect; inactive = flat fitted curve, though single readings scatter. Bridge positions count the residues as written; N and C are the ends. Square brackets hold non-standard residues; d marks the D form. Side chains are listed from the residue outwards. Peptide text beside a SMILES is read from it. * marks the point of attachment. Phg(4-OMe) = COc1ccc([C@H](N)C(=O)O)cc1; d(aIle) = CC[C@H](C)[C@@H](N)C(=O)O; d(aThr) = C[C@@H](O)[C@@H](N)C(=O)O; NMeF = CN[C@@H](Cc1ccccc1)C(=O)O; Isobutyryl = CC(C)C(=O)*
PROPERTY: Potency

C[C@H]1CCC2(OC1)O[C@H]1C[C@H]3[C@@H]4CC(=O)[C@]5(O)C[C@H](O)CC[C@@]5(C)[C@H]4CC[C@@]3(C)[C@H]1[C@H]2C (some centres undefined)    inactive
O=C1CC(c2ccc(O)cc2)Oc2ccccc21 (centres undefined)    13.3 µM (active)
CO[C@H]1[C@@H](OC(=O)/C(C)=C\[C@@H]2O[C@@H]2[C@H]2O[C@H]2C)[C@H](O)[C@H](OCC23C[C@@H]4[C@H](C)CC[C@H]4C4(C=O)CC2C=C(C(C)C)C34C(=O)O)O[C@@H]1C (some centres undefined)    inactive
CC[C@H](C)[C@H]1NC(=O)[C@@H](NC(=O)C(C)C)[C@@H](C)OC(=O)[C@H](COC(=O)CNC(C)=O)NC(=O)[C@@H]([C@@H](C)O)NC(=O)[C@H](Cc2ccccc2)N(C)C(=O)[C@H](c2ccc(OC)cc2)NC1=O (Isobutyryl-T[d(aIle)][Phg(4-OMe)][NMeF][d(aThr)]S([Gly-Ac]); ester 1-C)    inactive
O=Cc1ccc2n1C[C@]1(OC2)O[C@H](CO)[C@@H](O)[C@@H]1O    inactive
C[C@@]12CCC[C@@](C)(C(=O)O)[C@H]1CC[C@@]13C[C@@H](CC[C@H]12)[C@](C)(O)C3    inactive

Look up Potency: `COc1cc(O)c(C(=O)[C@@H]2[C@H](CC=C(C)C)C(C)=CC[C@H]2c2ccccc2)c(O)c1`
23.6 µM (active)

Entry to check: `COC(=O)[C@@]1(C)CCC[C@]2(C)c3cc(OC)ccc3CC[C@@H]12`
inactive

Entry to check: `CC[C@H]1[C@H](C)[C@H](c2cc(OC)c(OC)cc2OC)[C@@H](C)[C@H](c2cc(OC)c(OC)cc2OC)[C@@]12C=C(OC)C(=O)C=C2OC`
21.1 µM (active)

====

ASSAY_OVERVIEW: qHTS Assay for Lipid Storage Modulators (AID 1519)
TEST_SETTINGS: Drosophila S3 cells, BODIPY lipid droplet/cell ratio, laser cytometry; measured here: cell count channel max response; cells loaded with oleic acid
Method: NIH Molecular Libraries Probe Production Centers Network [MLPCN] NIH Chemical Genomics Center [NCGC] Assay Submitter (PI): Beller, Mathias; Max-Planck-Institut fur Biophysikalische Chemie […] We dispensed 4 uL of cells at 1.25 x 10^6 cells/mL into LoBase Aurora COC 1,536-well plates (black walled, clear bottom) with a bottle-valve solenoid-based dispenser (Aurora) to obtain 5,000 cells/well. […] The ratio of the total intensity in PMT channel 1 over total intensity of channel 3 was also calculated. […]
Records with an inconclusive call do not appear.
max response values for the compounds below.
Report the figure in % without appending any unit label.

Illustrative cases are given below, each with its answer.
CN(C)c1ccnc(-c2cccc(NS(C)(=O)=O)c2)n1    7.48
CC(C)NC(=O)N1CCC2(CC1)CCN(S(C)(=O)=O)CC2    6.33

Look up max response: `O=c1c(-c2ccc(Cl)cc2)nc2cnc(N3CCOCC3)nc2n1C[C@H]1CCCO1`
4.1

Entry to check: `COCCNc1ncnc2ccc(-c3cccnc3)cc12`
-1.43

Entry to check: `COCCn1c(=O)c(-c2cccs2)nc2cnc(N(C)C)nc21`
26.2

====

TESTED_TARGET: Glucocorticoid receptor (Homo sapiens)
ASSAY_OVERVIEW: GR-GFP Redistribution (AID 450); also: potency is read from the fitted curve at half-maximal effect
TEST_SETTINGS: U2OS GR-GFP nuclear translocation, laser cytometry, 2 h
Protocol: NIH Molecular Libraries Screening Centers Network [MLSCN] NIH Chemical Genomics Center [NCGC] […] GR-GFP U2OS cells were maintained in DMEM with Glutamax and high glucose, 1% v/v penicillin-streptomycin, and 0.5 mg/mL Geneticin. […] The plates were read by the Acumen Explorer using a 1 x 8 um scan of the whole well area. PI fluorescence triggered the collection of PI and GFP signals. […]
Activity calls are given as the source filed them.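 How the source made its calls: active means compounds whose dose series gives a full or clear partial fitted curve of increased nuclear translocation; inconclusive means weak partial curve or effect only at the top dose; inactive means no dose-dependent translocation response.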
PROPERTY: Potency

Cc1noc(C)c1-c1nccc(-n2ccnc2)n1    > 46 µM (inactive)
CCNc1ncc2nc(-c3ccc(OC)cc3)c(=O)n(C[C@H]3CCCO3)c2n1    > 9.22 µM (inactive)
COc1ccc2c(c1)c(CC(=O)O)c(C)n2Cc1ccc(F)cc1    > 46 µM (inactive)
CN1CCN(c2nc(-c3cccc(C#N)c3)nc3ccccc23)CC1    > 46 µM (inactive)

Look up Potency: `CN(Cc1ccco1)c1ncnc2ccc(-c3cccnc3)cc12`
> 46 µM (inactive)

Entry to check: `CC(=O)NCCNc1cc(-c2ccccc2CN(C)C)ncn1`
> 46 µM (inactive)

Entry to check: `COc1ccc(Oc2ncc3nc(-c4ccc(OC)cc4)c(=O)n(C)c3n2)cc1`
> 9.22 µM (inactive)

Data origin: PubChem BioAssay (NCATS)
